Tested on: ACHN
Experiment: NCI tumour cell line growth inhibition, 48 h
The source made the active and inactive calls. No stated cut-off is given here; in the data, active = GI50 up to about 1.1 µM and inactive = higher.
Would you kindly list GI50 for each of these compounds?

Request: What GI50 appears in the records for this compound with ACHN? `CCOP(=O)(OCC)Oc1c(OC)c2[nH]c(C(=O)OC)cc2c2c(C(=O)O)c[nH]c12`
Response: > 100 µM (inactive)

Request: Param readout= GI50; system= ACHN; entry= `c1ccc(-c2cc(-c3cc(-c4ccccc4)no3)on2)cc1` ; returns value.
Response: 29.3 µM (inactive)

Request: Form field - read-out: GI50; system: ACHN; submitted item: CN1C(=O)c2ccccc2NC(=O)C12O[C@@H]2c1cccc(O)c1 (stereo not given in full)
Response: > 100 µM (inactive)

Request: State its GI50 on ACHN: `CC(C)c1cc(C(C)C)c(Cl)c(Cl)c1O.CC(C)c1cc(Cl)c(O)c(C(C)C)c1Cl`
Response: 23.4 µM (inactive)

Request: Tell me reported GI50 for `COC(=O)CCC(=O)Nc1cc(C)ccc1C` , tested with ACHN.
Response: > 100 µM (inactive)

====

Give GI50 for every item shown.
Test system: Hs-578T
Test: NCI tumour cell line growth inhibition, 48 h
The source made the active and inactive calls. Cut-off read from the data, not from the text of the source: active = GI50 up to about 1.1 µM and inactive = higher. Starred links: 1 amine or outer side, 2 acyl side, 3 side chain; linkers in the order of their positions; H or OH if unused. Non-standard residues stand in square brackets, D forms with d. Residues, ends and D or L forms follow the SMILES beside them. X4 = C[C@H](N[*:1])C(=O)C(C)(C)C(=O)[*:2]; Hmpa(2S,3S) = CC[C@H](C)[C@H](O)C(=O)O; NMeY = CN[C@@H](Cc1ccc(O)cc1)C(=O)O; NMeL = CN[C@@H](CC(C)C)C(=O)O; NMeV = CN[C@H](C(=O)O)C(C)C; βAla = NCCC(=O)O

Request: Give GI50 (Hs-578T) of the following compound: `CO/N=C(\C)c1cccc(Nc2c3ccccc3nc3occc23)c1`
Response: 17 µM (inactive)

Request: Hello, I am looking for reported GI50 with Hs-578T for `CCn1c(SCC(=O)NNC(=S)NC)nc2ccccc2c1=O` . Could you help?
Response: > 100 µM (inactive)

Request: Hi! What's the reported GI50 for `O=C(CSc1nc2ccc(I)cc2c(=O)n1Cc1ccccc1)Nc1ccc(Br)cc1` on Hs-578T?
Response: 17.8 µM (inactive)

Request: Request body: readout GI50, system Hs-578T, query `Cn1c(S)nnc1-c1csc(-c2ccc(Cl)cc2)n1` . Return the value.
Response: 29.7 µM (inactive)

Request: Request - read-out GI50 | tested on Hs-578T | compound `CCc1ccc2oc(-c3cc(O)c(-c4nc5cc(CC)ccc5o4)cc3O)nc2c1`
Response: > 100 µM (inactive)

Request: Please tell me: GI50 of `O=C(O)c1ccccc1/C=N\N(CCO)C1=NCCN1` , system Hs-578T?
Response: > 100 µM (inactive)

Request: Reported GI50 for Hs-578T, given `CCSc1nc(COC(=O)NC)c(COC(=O)NC)n1C` ?
Response: > 100 µM (inactive)

Request: Quick check: GI50 on Hs-578T, item CC(=O)N(C(=O)CC(=O)N1N=C(c2ccccc2)C(/N=N/c2ccccc2[N+](=O)[O-])C1=O)c1ccc(Cl)cc1 (stereo not drawn) ?
Response: > 10 µM (inactive)

Request: Checklist item: GI50 tested on Hs-578T, entry `Cc1cc2ncn(CC(=O)O)c2cc1C` , value?
Response: > 100 µM (inactive)

Request: Quick check: GI50 on Hs-578T, item CCC(C)C(C(=O)N/N=C1/SCC(=O)N1C)C(=O)N/N=C1/SCC(=O)N1C (stereo not drawn) ?
Response: > 100 µM (inactive)

Request: Provide value of GI50 for this record tested with Hs-578T: `ClCCN1CCO/C1=N/c1ccc2c(c1)CCCC2`
Response: 13.9 µM (inactive)

Request: Which measured GI50 belongs to `COc1ccc(O)c(/C(C)=N/NC(=S)N(C)C)c1` , tested on Hs-578T?
Response: > 100 µM (inactive)

Request: Entry `CCCCn1cc(C(=O)O)c(=O)c2c3sccc3ccc21` , system Hs-578T: what GI50 was measured?
Response: > 100 µM (inactive)

Request: Lab request: please report GI50 under test system Hs-578T for `COc1ccccc1N1C(=O)CC(=O)N(C(=O)CCCCCCCCC(=O)N2C(=O)CC(=O)N(c3ccccc3OC)C2=S)C1=S`
Response: 69 µM (inactive)

Request: Form field - read-out: GI50; system: Hs-578T; submitted item: `CCOC(=O)CNC1=NNS(=O)(=O)c2ccccc21`
Response: > 100 µM (inactive)

Request: // fetch Hs-578T GI50 for CCOC(=O)C(CC(C)C)NC(=O)C(N)Cc1ccc(N(CCCl)CCCl)cc1 (stereo not drawn)
Response: 18.6 µM (inactive)

Request: GI50 of `OC(Cc1ccc2ccccc2n1)(C(F)(F)F)C(F)(F)F` on Hs-578T?
Response: > 10 µM (inactive)

Request: State its GI50 on Hs-578T: `O=C1NNC2(C(=O)N1)c1ccccc1-c1ccccc12`
Response: > 10 µM (inactive)

Request: Hi! What's the reported GI50 for O=C1c2c(O)cccc2C(C2OC(CO)C(O)C(O)C2O)c2cc(CO)cc(O)c21 (stereo not drawn) on Hs-578T?
Response: > 100 µM (inactive)

Request: Hs-578T / GI50 / `[N-]=[N+]=CC(=O)OC1Cc2ccccc2C1` : value?
Response: 42.9 µM (inactive)

Request: Recorded GI50 for O=c1[nH]c(=O)n(C2CC(O)C(CS)O2)cc1F (stereo not drawn) with Hs-578T, please?
Response: > 100 µM (inactive)

Request: Recall the recorded GI50 for CC[C@H](C)[C@@H]1OC(=O)CCNC(=O)[C@@H](C)NC(=O)C(C)(C)C(=O)[C@H](C)NC(=O)[C@H](Cc2ccc(OC)cc2)N(C)C(=O)[C@H](C(C)C)N(C)C(=O)CNC(=O)[C@H](CC(C)C)N(C)C(=O)CNC1=O (cyclo(G[NMeL]G[NMeV][NMeY](Me)[X4][dA][βAla][Hmpa(2S,3S)])) with Hs-578T and state it.
Response: 0.916 µM (active)

Request: Lab request: please report GI50 under test system Hs-578T for `CN(C)c1ccc(/C=C/c2nc3ccccc3s2)cc1`
Response: > 100 µM (inactive)

Request: Item CC(=O)C1C(=O)C(=O)N(c2ccc([N+](=O)[O-])cc2Cl)C1=O (stereo not drawn) with Hs-578T - GI50?
Response: > 100 µM (inactive)

Request: What is its GI50 for Hs-578T? Entry: O=C1Nc2ccccc2NC1C1OC(c2ccccc2)=CC1=O (stereo not drawn)
Response: > 100 µM (inactive)

Request: I'm curious: which GI50 was measured for CC1OC(OC2C(O)COC(OC3C(C)OC(OC4C(OC(=O)[C@]56CCC(C)(C)C[C@@H]5C5=CCC7[C@@]8(C)C[C@H](O)[C@H](OC9OC(CO)C(O)C(O)C9O)[C@@](C)(CO)[C@@H]8CC[C@@]7(C)[C@]5(C)CC6)OCC(O)C4O)C(O)C3OC3OCC(O)(CO)C3O)C2O)C(O)C(O)C1O (stereo partly drawn) tested on Hs-578T?
Response: 7.48 µM (inactive)

Request: Recorded GI50 for `COc1cc2c(cc1C)NC(=O)/C2=C/c1c(Cl)n(C)c2ccccc12` with Hs-578T, please?
Response: 3.42 µM (inactive)

Request: Please state recorded GI50 (tested on Hs-578T) of `COc1ccc(OC)c(/C=C2/C(=O)N/C(=N\C(C)=O)N2C)c1`
Response: > 100 µM (inactive)

Request: Short answer please: GI50, Hs-578T, entry `C[C@H](NC(=O)CNC(=O)CCCCCC(=O)NCC(=O)N[C@@H](C)C(=O)OCc1ccccc1)C(=O)OCc1ccccc1`
Response: > 100 µM (inactive)

Request: Form field: GI50 recorded for `[N-]=[N+]=Nc1ccccc1-c1ccccc1[N+](=O)[O-]` with Hs-578T (enter value)
Response: 30.5 µM (inactive)

Request: # get_value(readout= GI50, system= Hs-578T) for CC(=O)Oc1c(C)c2c(O)c3c1C1=C(OCOC1=C(C)C3=O)/C(C)=C/C(C)(O)C(O)C(C)C(O)C1C(=O)OC(C(C)C1O)C(C)(O)/C=C\C=C(C)C(=O)N2 (stereo not drawn)
Response: 25.7 µM (inactive)

Request: Field: GI50 (Hs-578T). Entry: `O=C(NCCCNCCCNC(=O)c1cc(-c2ccccc2)nc2ccccc12)c1cc(-c2ccccc2)nc2ccccc12`
Response: 2.35 µM (inactive)

Request: Reported GI50 for Hs-578T, given `CCn1c(SCC(=O)N/N=C2\SCC(=O)N2c2ccc(C)cc2)nc2ccccc2c1=O` ?
Response: 16.4 µM (inactive)

Request: Which measured GI50 belongs to `CC(C)c1cc(C(C)C)c(Cl)c(Cl)c1O.CC(C)c1cc(Cl)c(O)c(C(C)C)c1Cl` , tested on Hs-578T?
Response: 16.6 µM (inactive)

Request: Give recorded GI50 with Hs-578T for the following compound: `c1csc(-c2nn3c(C45CC6CC(CC(C6)C4)C5)nnc3s2)c1`
Response: > 100 µM (inactive)

Request: Lab note: need GI50 with Hs-578T for entry CC1C2CC(C/C2=N/O)C1(C)C (stereo not drawn) , please look it up.
Response: > 100 µM (inactive)

Request: Short answer please: GI50, Hs-578T, entry CC(C)(C)C1=C(Br)C(F)(C(C)(C)C)OP1(=O)c1ccccc1 (stereo not drawn)
Response: 29.6 µM (inactive)

Request: Tell me reported GI50 for COC(=O)c1cc2c(c3c1CC(Cc1ccccc1)C3=O)CCC2 (stereo not drawn) , tested with Hs-578T.
Response: 45.9 µM (inactive)
